- system: Muscarinic acetylcholine receptor M2 (Sus scrofa) (UniProt P06199)
- Sequence (whole entry): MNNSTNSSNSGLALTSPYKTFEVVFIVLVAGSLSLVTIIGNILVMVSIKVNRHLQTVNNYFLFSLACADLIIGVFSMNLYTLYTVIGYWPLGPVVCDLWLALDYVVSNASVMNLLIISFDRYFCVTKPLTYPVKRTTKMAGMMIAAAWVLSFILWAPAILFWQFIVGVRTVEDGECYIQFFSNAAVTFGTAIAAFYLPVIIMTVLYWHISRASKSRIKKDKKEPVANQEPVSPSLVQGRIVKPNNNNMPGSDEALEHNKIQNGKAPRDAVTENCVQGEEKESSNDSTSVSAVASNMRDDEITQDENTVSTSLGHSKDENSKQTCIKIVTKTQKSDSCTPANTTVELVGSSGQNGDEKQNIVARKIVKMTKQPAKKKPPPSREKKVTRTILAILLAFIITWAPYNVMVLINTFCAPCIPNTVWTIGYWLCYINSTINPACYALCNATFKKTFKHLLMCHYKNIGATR
- protocol: Binding affinity for [3H]NMS-occupied muscarinic acetylcholine receptor M2 from porcine heart ventricle.
readout: p alphaKa

{"compound": "C[N+](C)(CCCCCC[N+](C)(C)CCCN1C(=O)C2C3c4ccccc4C(c4ccccc43)C2C1=O)CCCN1C(=O)c2ccccc2C1=O (centres undefined)", "p alphaKa": 6.56}
{"compound": "CC(C)(CN1C(=O)c2cccc3cccc(c23)C1=O)C[N+](C)(C)CCCCCC[N+](C)(C)CCCN1C(=O)c2ccccc2C1=O", "p alphaKa": 8.66}
{"compound": "Cc1ccc2c(c1)C(=O)N(CCC[N+](C)(C)CCCCCC[N+](C)(C)CCCN1C(=O)c3cccc4cccc(c34)C1=O)C2=O", "p alphaKa": 7.79}
{"compound": "CC(C)(CN1C(=O)c2ccccc2C1=O)C[N+](C)(C)CCCCCC[N+](C)(C)CC(C)(C)CN1C(=O)c2ccccc2C1=O", "p alphaKa": 6.87}
{"compound": "C[N+](C)(CCCCCC[N+](C)(C)CCCN1C(=O)c2cccc3cccc(c23)C1=O)CCCN1C(=O)c2cccc3cccc(c23)C1=O", "p alphaKa": 7.83}
{"compound": "Cc1ccc2c(c1)C(=O)N(CCC[N+](C)(C)CCCCCC[N+](C)(C)CC(C)(C)CN1C(=O)c3ccc(C)cc3C1=O)C2=O", "p alphaKa": 7.44}
{"compound": "C[N+](C)(CCCCCC[N+](C)(C)CCCN1C(=O)C2C3c4ccccc4C(c4ccccc43)C2C1=O)CCCN1C(=O)C2C3c4ccccc4C(c4ccccc43)C2C1=O (centres undefined)", "p alphaKa": 6.74}
{"compound": "Cc1ccc2c(c1)C(=O)N(CC(C)(C)C[N+](C)(C)CCCCCC[N+](C)(C)CCCN1C(=O)c3ccccc3C1=O)C2=O", "p alphaKa": 7.45}
{"compound": "C[N+](C)(CCCCCC[N+](C)(C)CCCN1C(=O)c2cc(Cl)c(Cl)cc2C1=O)CCCN1C(=O)c2ccccc2C1=O", "p alphaKa": 6.9}
{"compound": "C[N+](C)(CCCCCC[N+](C)(C)CCCN1C(=O)c2ccc(C(F)(F)F)cc2C1=O)CCCN1C(=O)c2ccccc2C1=O", "p alphaKa": 6.12}
{"compound": "Cc1ccc2c(c1)C(=O)N(CCC[N+](C)(C)CCCCCC[N+](C)(C)CC(C)(C)CN1C(=O)c3ccccc3C1=O)C2=O", "p alphaKa": 7.07}
{"compound": "CC(C)(CN1C(=O)c2cccc3cccc(c23)C1=O)C[N+](C)(C)CCCCCC[N+](C)(C)CC(C)(C)CN1C(=O)c2cccc3cccc(c23)C1=O", "p alphaKa": 8.04}
{"compound": "C[N+](C)(CCCCCC[N+](C)(C)CCCN1C(=O)c2ccccc2C1=O)CCCN1C(=O)c2ccccc2C1=O", "p alphaKa": 5.73}
{"compound": "C[N+](C)(CCCCCC[N+](C)(C)CCCN1C(=O)c2cc(Cl)c(Cl)cc2C1=O)CCCN1C(=O)c2cc(Cl)c(Cl)cc2C1=O", "p alphaKa": 6.57}

Origin of values: ChEMBL document CHEMBL1145782
